So I've got a bunch of compounds here, and I need their pIC50 values.
target: human JAK2 (a.a. 828-1132) (Homo sapiens, UniProt O60674); construct: JAK2 (a.a. 828-1132); His tag (N); made in house; host or cells: insect cells (baculovirus); assay: In vitro JAK kinase assay (HTRF, phosphorylation of a biotinylated peptide), JAK2; assay type: biochemical; settings: Table D1
Sequence (O60674 828-1132): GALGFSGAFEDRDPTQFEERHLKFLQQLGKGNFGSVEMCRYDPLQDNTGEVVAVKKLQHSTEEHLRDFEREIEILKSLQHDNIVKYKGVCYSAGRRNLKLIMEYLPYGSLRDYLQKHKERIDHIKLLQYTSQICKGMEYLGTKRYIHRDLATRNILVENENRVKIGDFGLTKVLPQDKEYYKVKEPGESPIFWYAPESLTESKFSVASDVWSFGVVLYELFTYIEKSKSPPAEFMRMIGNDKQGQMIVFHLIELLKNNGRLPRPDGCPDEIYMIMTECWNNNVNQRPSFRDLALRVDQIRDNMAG
Structures can show the parent of a compound that is named as a salt.
Schema: pIC50 number; meaning minus log10 of the concentration expressed in molar units.

The recorded pIC50 for O=C(C[C@H]1CCN(C(=O)c2nc[nH]n2)C1)Nc1ccc2cc1CCc1cncc(c1)Nc1ncc(Cl)c(n1)N2 [Example D128, bis(trifluoroacetate)] is 6.70

The recorded pIC50 for Clc1cnc2nc1Nc1cccc(c1)OCCOc1cccc(c1)N2 [Example D10, trifluoroacetate] is 8.62

The recorded pIC50 for O=S(=O)(Nc1cc2cc(c1)OCCSc1cccc(c1)Nc1nc(ncc1Cl)N2)c1ccccc1 [Example D68, trifluoroacetate] is 8.24

The recorded pIC50 for O=C(COc1ccc2cc1CCc1cncc(c1)Nc1ncc(Cl)c(n1)N2)N1CCC(c2nc(-c3cccs3)no2)CC1 [Example D258, bis(trifluoroacetate)] is 6.95

###

target: human JAK1 (a.a. 837-1142) (Homo sapiens, UniProt P23458); construct: human JAK1 (a.a. 837-1142); His tag (N); made in house; host or cells: insect cells (baculovirus); assay: In vitro JAK kinase assay (HTRF, phosphorylation of a biotinylated peptide), JAK1; format: biochemical; details: method AA1 (90 μM ATP) or AA2 (1000 μM ATP), not stated per value; read-out: JAK1 IC50
Sequence (P23458 849-1154): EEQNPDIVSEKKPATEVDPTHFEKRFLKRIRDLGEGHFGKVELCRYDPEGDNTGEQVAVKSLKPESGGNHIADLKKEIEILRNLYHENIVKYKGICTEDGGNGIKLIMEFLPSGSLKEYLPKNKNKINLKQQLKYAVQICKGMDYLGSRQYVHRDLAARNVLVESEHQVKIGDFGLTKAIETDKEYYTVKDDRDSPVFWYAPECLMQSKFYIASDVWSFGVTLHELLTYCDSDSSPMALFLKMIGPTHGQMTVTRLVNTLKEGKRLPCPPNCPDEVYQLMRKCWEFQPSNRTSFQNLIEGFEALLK
Where a name gives a salt, the structure may show the parent alone.
recorded metric: pIC50
Schema: pIC50 number; meaning minus log10 of the concentration expressed in molar units.

The recorded pIC50 for O=C(CC1CCN(C(=O)c2ccno2)CC1)Nc1ccc2cc1CCc1cncc(c1)Nc1ncc(Cl)c(n1)N2 [Example A128, bis(trifluoroacetate)] is 9.22

The recorded pIC50 for COc1cccc(NC(=O)N2CCC(C(=O)Nc3ccc4cc3CCc3cccc(c3)Nc3ncc(Cl)c(n3)N4)CC2)c1 [Example A38, trifluoroacetate] is 8.18

The recorded pIC50 for Cc1cc(C)c(C#N)c(N2CCC(CC(=O)Nc3ccc4cc3CCc3cncc(c3)Nc3ncc(Cl)c(n3)N4)CC2)n1 [Example A239, tris(trifluoroacetate)] is 7.80

###

target: human JAK3 (a.a. 781-1124) (Homo sapiens); construct: JAK3 (a.a. 781-1124); His tag (N); made in house; host or cells: insect cells (baculovirus); assay: In vitro JAK kinase assay (HTRF, phosphorylation of a biotinylated peptide), JAK3; type: biochemical; details: Table D1
Sequence (P52333 781-1124): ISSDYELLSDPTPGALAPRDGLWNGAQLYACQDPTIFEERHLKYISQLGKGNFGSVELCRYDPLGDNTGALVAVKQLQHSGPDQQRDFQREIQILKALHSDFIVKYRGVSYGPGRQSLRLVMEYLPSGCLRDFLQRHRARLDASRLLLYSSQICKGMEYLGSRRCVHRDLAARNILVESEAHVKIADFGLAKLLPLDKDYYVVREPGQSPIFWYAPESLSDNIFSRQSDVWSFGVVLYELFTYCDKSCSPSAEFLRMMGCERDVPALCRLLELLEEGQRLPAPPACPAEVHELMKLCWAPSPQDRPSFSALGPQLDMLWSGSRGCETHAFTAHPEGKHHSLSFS
Structures can show the parent of a compound that is named as a salt.
So I've got a bunch of compounds here, and I need their IC50 values.

The recorded IC50 for O=C(C[C@H]1CCCNC1)Nc1ccc2cc1CCc1cncc(c1)Nc1ncc(Cl)c(n1)N2 [Example D195] is 355 nM

The recorded IC50 for C[N+]1(C)CCN(c2ccc3cc2CCc2cccc(c2)Nc2ncc(Cl)c(n2)N3)CC1 [Example D86] is 169 nM

The recorded IC50 for N#CCC(=O)N1CCN(C(=O)COc2ccc3cc2CCc2cncc(c2)Nc2ncc(Cl)c(n2)N3)CC1 [Example D269, bis(trifluoroacetate)] is > 400 nM

The recorded IC50 for O=C(c1ccccc1)N1CCN(c2ccc3cc2CCc2cccc(c2)Nc2ncc(Cl)c(n2)N3)CC1 [Example D94, bis(trifluoroacetate)] is 138 nM

The recorded IC50 for O=C(Cn1c(=O)oc2c3cc(cc21)Nc1nc(ncc1Cl)Nc1cccc(c1)CC3)NCc1ccccc1 [Example D186, trifluoroacetate] is 162 nM

The recorded IC50 for Clc1cnc2nc1Nc1cccc(c1)CCOc1cccc(c1)N2 [Example D5, trifluoroacetate] is 36 nM

The recorded IC50 for O=C(COc1ccc2cc1CCc1cncc(c1)Nc1ncc(Cl)c(n1)N2)N1CCN(C(=O)c2ccc(F)cc2F)CC1 [Example D259, bis(trifluoroacetate)] is > 400 nM
